biological target: ΔF508-CFTR (Homo sapiens, UniProt P13569, DEL508-508); construct: host or cells: CFBE41o-, doxycycline-inducible; assay: CFTR cell surface levels using HRP-tagged ΔF508-CFTR expressing CFBE cells, intrinsic corrector capacity; type: cell-based; settings: HRP-tagged ΔF508-CFTR expressing CFBE cells; intrinsic corrector capacity (no co-corrector); 33° C., 20 hours
Sequence (P13569 with tags, fused parts or gaps DEL508-508): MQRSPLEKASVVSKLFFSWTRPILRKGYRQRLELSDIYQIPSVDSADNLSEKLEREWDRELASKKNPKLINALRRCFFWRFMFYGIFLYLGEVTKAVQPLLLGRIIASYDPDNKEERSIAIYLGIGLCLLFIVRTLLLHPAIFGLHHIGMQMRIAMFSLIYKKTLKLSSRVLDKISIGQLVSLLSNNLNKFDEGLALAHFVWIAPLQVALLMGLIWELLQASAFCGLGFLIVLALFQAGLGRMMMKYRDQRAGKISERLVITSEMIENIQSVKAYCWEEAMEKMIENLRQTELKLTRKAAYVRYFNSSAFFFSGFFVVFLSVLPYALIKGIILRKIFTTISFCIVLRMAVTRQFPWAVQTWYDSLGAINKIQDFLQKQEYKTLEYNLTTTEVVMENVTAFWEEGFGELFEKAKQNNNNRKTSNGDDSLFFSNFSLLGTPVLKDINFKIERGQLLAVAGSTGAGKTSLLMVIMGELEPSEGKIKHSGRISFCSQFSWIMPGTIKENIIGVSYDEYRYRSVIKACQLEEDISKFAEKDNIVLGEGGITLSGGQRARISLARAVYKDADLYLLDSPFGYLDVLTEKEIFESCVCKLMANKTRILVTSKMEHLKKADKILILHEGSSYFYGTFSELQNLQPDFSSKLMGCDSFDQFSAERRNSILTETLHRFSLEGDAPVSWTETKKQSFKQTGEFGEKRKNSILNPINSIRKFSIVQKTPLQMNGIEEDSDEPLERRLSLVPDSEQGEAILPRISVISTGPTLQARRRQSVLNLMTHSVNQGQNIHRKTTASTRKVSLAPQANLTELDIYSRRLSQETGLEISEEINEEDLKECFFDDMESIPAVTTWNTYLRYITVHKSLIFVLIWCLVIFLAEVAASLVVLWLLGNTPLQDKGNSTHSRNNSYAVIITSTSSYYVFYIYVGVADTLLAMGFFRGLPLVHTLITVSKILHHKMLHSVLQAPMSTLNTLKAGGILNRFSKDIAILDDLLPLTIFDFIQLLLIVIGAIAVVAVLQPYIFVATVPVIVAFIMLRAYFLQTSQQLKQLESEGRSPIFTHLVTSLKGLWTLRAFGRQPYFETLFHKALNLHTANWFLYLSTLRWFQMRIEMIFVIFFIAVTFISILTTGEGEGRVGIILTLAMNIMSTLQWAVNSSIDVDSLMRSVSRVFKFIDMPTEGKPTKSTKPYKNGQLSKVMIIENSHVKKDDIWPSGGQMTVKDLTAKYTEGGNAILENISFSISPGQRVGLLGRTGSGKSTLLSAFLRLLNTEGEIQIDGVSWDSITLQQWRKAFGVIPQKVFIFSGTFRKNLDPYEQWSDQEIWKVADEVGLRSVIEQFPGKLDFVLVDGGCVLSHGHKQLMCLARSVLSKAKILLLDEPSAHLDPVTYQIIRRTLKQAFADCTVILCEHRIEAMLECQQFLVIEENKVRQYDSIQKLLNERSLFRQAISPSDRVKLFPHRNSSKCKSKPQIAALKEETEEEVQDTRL
Labelling: % Activation reported below 200% becomes y; at or above becomes n.

molecule=CO[C@@H]1CCN(c2cc(C(=O)O)nc3c2c(C2CCC2)nn3-c2ccccc2)C1 measurement_target="ΔF508-CFTR (Homo sapiens, UniProt P13569, DEL508-508)" assigned_class=y
molecule="O=C(O)c1cc(N2CCOC(CO)C2)c2c(C3CCC3)nn(-c3ccccc3)c2n1 (stereo not shown)" measurement_target="ΔF508-CFTR (Homo sapiens, UniProt P13569, DEL508-508)" assigned_class=y
molecule=O=C(O)c1cc(N2CCC(N3CCOCC3)CC2)c2c(C3CCC3)nn(-c3cccc(C(F)(F)F)c3)c2n1 measurement_target="ΔF508-CFTR (Homo sapiens, UniProt P13569, DEL508-508)" assigned_class=n
molecule=COCCN1CCC2(CC1)CCN(c1cc(C(=O)O)nc3c1c(C1CCC1)nn3-c1ccc(F)cc1)CC2 measurement_target="ΔF508-CFTR (Homo sapiens, UniProt P13569, DEL508-508)" assigned_class=y
molecule=O=C(O)c1cc(N2CCC(CN3CCCC3)CC2)c2c(C3CCC3)nn(-c3ccccc3)c2n1 measurement_target="ΔF508-CFTR (Homo sapiens, UniProt P13569, DEL508-508)" assigned_class=n
molecule=O=C(O)c1cc(-c2ccc(N3CCN(C4CC4)CC3)nc2)c2c(C3CCC3)nn(C3CCCCC3)c2n1 measurement_target="ΔF508-CFTR (Homo sapiens, UniProt P13569, DEL508-508)" assigned_class=y
molecule=COCC1CCN(Cc2cc(C(=O)O)nc3c2c(C2CCC2)nn3-c2ccc(F)cc2)CC1 measurement_target="ΔF508-CFTR (Homo sapiens, UniProt P13569, DEL508-508)" assigned_class=y
molecule=O=C(O)c1cc(N2C[C@@H](F)C[C@H]2CO)c2c(C3CCC3)nn(-c3ccccc3)c2n1 measurement_target="ΔF508-CFTR (Homo sapiens, UniProt P13569, DEL508-508)" assigned_class=y
molecule=CN(C)CCOCCOc1cc(C(=O)O)nc2c1c(C1CCC1)nn2-c1ccccc1 measurement_target="ΔF508-CFTR (Homo sapiens, UniProt P13569, DEL508-508)" assigned_class=y
molecule=O=C(O)c1cc(N2CCC([C@@H](F)CO)CC2)c2c(C3CCC3)nn(-c3ccccc3)c2n1 measurement_target="ΔF508-CFTR (Homo sapiens, UniProt P13569, DEL508-508)" assigned_class=n
molecule=COC1CCN(c2cc(C(=O)O)nc3c2c(C(C)C)nn3-c2ccnc(N3CCCC3)c2)CC1 measurement_target="ΔF508-CFTR (Homo sapiens, UniProt P13569, DEL508-508)" assigned_class=n
molecule=O=C(O)c1cc(N2CCC(N3CCCC3)CC2)c2c(C3CCC3)nn(-c3ccccc3)c2n1 measurement_target="ΔF508-CFTR (Homo sapiens, UniProt P13569, DEL508-508)" assigned_class=y
molecule="O=C(O)c1cc(N2CCOC(CN3CCCCC3)C2)c2c(C3CCC3)nn(-c3ccccc3)c2n1 (stereo not shown)" measurement_target="ΔF508-CFTR (Homo sapiens, UniProt P13569, DEL508-508)" assigned_class=y
molecule=CC(C)c1nn(-c2ccc(F)cc2)c2nc(C(=O)O)cc(N3CC4(CCCOC4)C3)c12 measurement_target="ΔF508-CFTR (Homo sapiens, UniProt P13569, DEL508-508)" assigned_class=y
molecule=O=C(O)c1cc(OCCN(C2CCCCC2)C2COC2)c2c(C3CCC3)nn(-c3ccccc3)c2n1 measurement_target="ΔF508-CFTR (Homo sapiens, UniProt P13569, DEL508-508)" assigned_class=y
molecule=O=C(O)c1cc(OCCN2CCCC2)c2c(C3CCC3)nn(-c3ccccc3)c2n1 measurement_target="ΔF508-CFTR (Homo sapiens, UniProt P13569, DEL508-508)" assigned_class=y
molecule=O=C(O)c1cc(OC2CCOCC2)c2c(C3CCC3)nn(-c3ccccc3)c2n1 measurement_target="ΔF508-CFTR (Homo sapiens, UniProt P13569, DEL508-508)" assigned_class=y
molecule=O=C1CC[C@H](Oc2cc(C(=O)O)nc3c2c(C2CCC2)nn3-c2ccccc2)CN1 measurement_target="ΔF508-CFTR (Homo sapiens, UniProt P13569, DEL508-508)" assigned_class=y
molecule=CS(=O)(=O)C1CCN(c2cc(C(=O)O)nc3c2c(C2CCC2)nn3-c2ccccc2)CC1 measurement_target="ΔF508-CFTR (Homo sapiens, UniProt P13569, DEL508-508)" assigned_class=n
molecule=O=C(O)c1cc(N2CC[C@H](O)[C@H](F)C2)c2c(C3CCC3)nn(-c3ccccc3)c2n1 measurement_target="ΔF508-CFTR (Homo sapiens, UniProt P13569, DEL508-508)" assigned_class=y
molecule="COCCOCC1(F)CCN(c2cc(C(=O)O)nc3c2c(C2CCC2)nn3-c2ccccc2)C1 (stereo not shown)" measurement_target="ΔF508-CFTR (Homo sapiens, UniProt P13569, DEL508-508)" assigned_class=y
molecule=Cc1cc(-n2nc(C3CCC3)c3c(N4CCC(N5CCOCC5)CC4)cc(C(=O)O)nc32)ccc1F measurement_target="ΔF508-CFTR (Homo sapiens, UniProt P13569, DEL508-508)" assigned_class=n
molecule=CC(C)c1nn(-c2ccc(F)cc2)c2nc(C(=O)O)cc(N3CCC(CC4CCCCC4)CC3)c12 measurement_target="ΔF508-CFTR (Homo sapiens, UniProt P13569, DEL508-508)" assigned_class=n
molecule=O=C(O)c1cc(N2CCC(N3CCOCC3)CC2)c2c(C3CCC3)nn(-c3ccccc3)c2n1 measurement_target="ΔF508-CFTR (Homo sapiens, UniProt P13569, DEL508-508)" assigned_class=n
molecule="CC1CN(C2CCN(c3cc(C(=O)O)nc4c3c(C3CCC3)nn4-c3ccccc3)CC2)CC(C)O1 (stereo not shown)" measurement_target="ΔF508-CFTR (Homo sapiens, UniProt P13569, DEL508-508)" assigned_class=n
